target: Prostaglandin G/H synthase 1 (Homo sapiens, UniProt P23219); test: Inhibition of COX1-mediated PGF2alpha formation in LPS-stimulated human monocytes preincubated for 15 mins before arachidonic acid substrate addition measured after 30 mins by UPLC-MS/MS analysis; assay type: cell-based
Sequence (P23219 whole entry): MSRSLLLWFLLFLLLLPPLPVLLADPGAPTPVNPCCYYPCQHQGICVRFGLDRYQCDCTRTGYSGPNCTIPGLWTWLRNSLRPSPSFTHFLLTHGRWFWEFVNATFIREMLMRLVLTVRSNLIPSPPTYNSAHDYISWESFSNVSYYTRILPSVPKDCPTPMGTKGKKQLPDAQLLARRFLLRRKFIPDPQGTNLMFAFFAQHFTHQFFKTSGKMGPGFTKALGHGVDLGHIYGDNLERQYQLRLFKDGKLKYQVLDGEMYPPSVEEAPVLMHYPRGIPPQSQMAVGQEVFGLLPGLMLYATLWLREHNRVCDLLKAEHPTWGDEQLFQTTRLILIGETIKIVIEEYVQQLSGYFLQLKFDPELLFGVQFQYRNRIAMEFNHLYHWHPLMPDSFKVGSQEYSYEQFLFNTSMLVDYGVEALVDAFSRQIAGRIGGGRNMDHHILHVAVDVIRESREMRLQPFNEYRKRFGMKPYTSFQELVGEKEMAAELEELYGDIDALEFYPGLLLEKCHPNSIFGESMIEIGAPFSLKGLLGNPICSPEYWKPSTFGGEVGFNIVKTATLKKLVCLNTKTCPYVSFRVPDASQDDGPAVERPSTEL
pIC50: −log10 of the molar value.
test_readout: pIC50

Ask: Which pIC50 value belongs to COc1cc(/C=C/c2cc(/C=C/c3cc(CC=C(C)C)c(O)c(OC)c3)[nH]n2)cc(CC=C(C)C)c1O ?
Result: < 5.00

----------
target: Prostaglandin G/H synthase 1 (Homo sapiens); assay: Inhibition of COX1-mediated PGE2 production in human platelets assessed as formation of 12-HHT using arachidonic acid as substrate preincubated for 5 mins measured after 5 mins by RP-HPLC analysis
test_readout: IC50 (µM)
Just the number please, in µM, no unit attached.

Ask: Which IC50 value belongs to COc1cc(/C=C/C(=O)CC(=O)/C=C/c2cc(F)c(O)c(OC)c2)cc(F)c1O ?
Result: 7.5

----------
biological target: Polyunsaturated fatty acid lipoxygenase ALOX12 (Homo sapiens); assay: Inhibition of 12-LO in human neutrophils assessed as residual activity relative to control; settings: values are per cent of control
Sequence (P18054 whole entry): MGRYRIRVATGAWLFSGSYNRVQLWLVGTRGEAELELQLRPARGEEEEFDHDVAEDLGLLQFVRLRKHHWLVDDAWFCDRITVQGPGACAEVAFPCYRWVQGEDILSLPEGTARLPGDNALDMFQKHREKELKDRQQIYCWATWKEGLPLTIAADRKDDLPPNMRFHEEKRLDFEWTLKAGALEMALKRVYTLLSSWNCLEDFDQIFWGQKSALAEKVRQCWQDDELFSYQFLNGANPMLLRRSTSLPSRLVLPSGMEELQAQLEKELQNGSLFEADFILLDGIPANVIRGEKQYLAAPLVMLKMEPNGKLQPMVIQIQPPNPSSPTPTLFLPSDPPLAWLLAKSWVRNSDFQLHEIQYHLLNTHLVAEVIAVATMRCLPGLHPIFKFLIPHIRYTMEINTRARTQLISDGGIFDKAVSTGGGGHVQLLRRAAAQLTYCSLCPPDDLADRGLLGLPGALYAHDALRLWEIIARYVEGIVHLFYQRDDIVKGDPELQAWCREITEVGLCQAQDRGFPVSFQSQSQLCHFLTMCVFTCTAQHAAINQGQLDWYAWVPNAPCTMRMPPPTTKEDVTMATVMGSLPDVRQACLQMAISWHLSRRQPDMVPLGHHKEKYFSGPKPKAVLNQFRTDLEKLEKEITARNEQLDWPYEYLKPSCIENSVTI
Give residual activity for every item shown.
Just the number please, in %, no unit attached.

Ask: Which residual activity value belongs to COc1cc(/C=C/C(=O)/C=C/c2ccc(O)c(OC)c2)ccc1O ?
Result: 70.1

Ask: Which residual activity value belongs to COc1cc(/C=C/C(=O)CC(=O)/C=C/c2cc(F)c(O)c(OC)c2)cc(F)c1O ?
Result: 69.7

Ask: Which residual activity value belongs to COc1cc(/C=C/C(=O)CC(=O)/C=C/c2cc(CCC(C)C)c(O)c(OC)c2)cc(CCC(C)C)c1O ?
Result: 75.7

Ask: Which residual activity value belongs to COc1cc(/C=C/C(=O)/C=C/c2cc(CC=C(C)C)c(O)c(OC)c2)cc(CC=C(C)C)c1O ?
Result: 64.7

Ask: Which residual activity value belongs to COc1cc(CCC(=O)CC(=O)CCc2ccc(O)c(OC)c2)ccc1O [TETRAHYDROCURCUMIN] ?
Result: 87.4

Ask: Which residual activity value belongs to COc1cc(/C=C/C(=O)CC(=O)c2ccc(O)c(OC)c2)ccc1O ?
Result: 60.6

Ask: Which residual activity value belongs to COc1cc(/C=C/c2cc(/C=C/c3cc(CC=C(C)C)c(O)c(OC)c3)[nH]n2)cc(CC=C(C)C)c1O ?
Result: 68.7

Ask: Which residual activity value belongs to COc1cc(CCC(=O)CC(=O)CCc2cc(CCC(C)C)c(O)c(OC)c2)cc(CCC(C)C)c1O ?
Result: 76.4

Ask: Which residual activity value belongs to COc1cc(/C=C/C(=O)CC(=O)/C=C/c2ccc(O)c(OC)c2)ccc1O ?
Result: 65

Ask: Which residual activity value belongs to COc1cc(/C=C/C(=O)/C=C/c2cc(F)c(O)c(OC)c2)cc(F)c1O ?
Result: 67.7

----------
biological target: Polyunsaturated fatty acid lipoxygenase ALOX12 (Homo sapiens); assay: Inhibition of 12-LO in human neutrophils
test_readout: pIC50
Schema: pIC50 number; meaning minus log10 of the concentration expressed in molar units.

Ask: Which pIC50 value belongs to COc1cc(/C=C/c2cc(/C=C/c3ccc(O)c(OC)c3)[nH]n2)ccc1O [CURCUMIN PYRAZOLE] ?
Result: 5.14

Ask: Which pIC50 value belongs to COc1cc(/C=C/c2cc(-c3ccc(O)c(OC)c3)[nH]n2)ccc1O ?
Result: 5.11

----------
Target: Polyunsaturated fatty acid lipoxygenase ALOX15 (Homo sapiens)
Sequence (P16050 whole entry): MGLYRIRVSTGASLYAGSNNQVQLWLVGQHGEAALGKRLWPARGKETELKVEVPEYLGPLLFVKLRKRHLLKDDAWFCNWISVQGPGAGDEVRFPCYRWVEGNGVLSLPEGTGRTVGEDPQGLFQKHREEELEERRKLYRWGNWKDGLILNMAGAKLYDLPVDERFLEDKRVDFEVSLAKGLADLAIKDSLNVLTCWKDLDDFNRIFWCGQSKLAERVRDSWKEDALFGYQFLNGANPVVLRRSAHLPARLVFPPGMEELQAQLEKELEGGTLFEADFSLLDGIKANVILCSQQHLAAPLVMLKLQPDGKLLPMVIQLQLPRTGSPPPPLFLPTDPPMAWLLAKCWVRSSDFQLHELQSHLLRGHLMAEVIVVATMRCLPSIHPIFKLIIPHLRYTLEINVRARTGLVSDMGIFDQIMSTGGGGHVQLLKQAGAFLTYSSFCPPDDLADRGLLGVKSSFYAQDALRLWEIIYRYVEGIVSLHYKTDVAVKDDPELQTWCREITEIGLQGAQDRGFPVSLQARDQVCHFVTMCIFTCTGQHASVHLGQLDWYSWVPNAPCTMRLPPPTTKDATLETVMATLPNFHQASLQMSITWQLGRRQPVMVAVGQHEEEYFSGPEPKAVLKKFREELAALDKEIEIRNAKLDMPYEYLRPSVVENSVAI
Experiment: Inhibition of 15-LO-mediated 15-HETE formation in LPS-stimulated human monocytes preincubated for 15 mins before arachidonic acid substrate addition measured after 30 mins by UPLC-MS/MS analysis
test_readout: IC50 (nM)
Just the number please, in nM, no unit attached.

Ask: Which IC50 value belongs to COc1cc(/C=C/C(=O)CC(=O)/C=C/c2ccc(O)c(OC)c2)ccc1O ?
Result: 1200
